Molecular target: Recombinant human calpain I (Homo sapiens)
Construct: made in house
Test: Inhibition of calpain I activity
Type: biochemical
Conditions: Table III; 0.1 uM
Experimental: To evaluate inhibitory activity, stock solutions (40 times concentrated) of exemplary compounds of the invention were prepared in 100% anhydrous DMSO and 5 μL of each inhibitor preparation were aliquoted into each of three wells of a 96-well plate. […] Substrate hydrolysis was monitored every 5 minutes for a total of 30 minutes. […] The results were plotted as % inhibition versus log inhibitor concentration and the IC50 was calculated from linear regression of the data. […]
Square brackets hold non-standard residues; d marks the D form. Peptide text beside a SMILES is read from it. * marks the point of attachment. Tos = Cc1ccc(S(=O)(=O)*)cc1; dΔPro = O=C(O)[C@H]1C=CCN1
Exercise: for every item that follows, state its recorded inhibition at 0.1 µM.
Note: unit % is implicit; provide only the numeric part.

Q) For the compound shown here, Cc1ccc(S(=O)(=O)O[C@@H]2C[C@H](C(=O)N[C@H](C=O)Cc3ccccc3)N(S(=O)(=O)c3ccc(C)cc3)C2)cc1 [Compound 121] , give the reported inhibition at 0.1 µM.
A) 28

Q) For the compound shown here, Cc1ccc(S(=O)(=O)N2CC=C[C@@H]2C(=O)N[C@H](C=O)Cc2ccccc2)cc1 [Compound 130] (Tos-[dΔPro]-Phe-aldehyde) , give the reported inhibition at 0.1 µM.
A) 90

Q) For the compound shown here, CC(C)(C)OC(=O)N1CCCC[C@H](NC(=O)[C@@H](COCc2ccccc2)N(C(=O)OC(C)(C)C)S(C)(=O)=O)C1=O [Compound 127] , give the reported inhibition at 0.1 µM.
A) 6

====

Target: Recombinant human calpain I (Homo sapiens, UniProt P07384)
Construct: made in house
Sequence (P07384 whole entry): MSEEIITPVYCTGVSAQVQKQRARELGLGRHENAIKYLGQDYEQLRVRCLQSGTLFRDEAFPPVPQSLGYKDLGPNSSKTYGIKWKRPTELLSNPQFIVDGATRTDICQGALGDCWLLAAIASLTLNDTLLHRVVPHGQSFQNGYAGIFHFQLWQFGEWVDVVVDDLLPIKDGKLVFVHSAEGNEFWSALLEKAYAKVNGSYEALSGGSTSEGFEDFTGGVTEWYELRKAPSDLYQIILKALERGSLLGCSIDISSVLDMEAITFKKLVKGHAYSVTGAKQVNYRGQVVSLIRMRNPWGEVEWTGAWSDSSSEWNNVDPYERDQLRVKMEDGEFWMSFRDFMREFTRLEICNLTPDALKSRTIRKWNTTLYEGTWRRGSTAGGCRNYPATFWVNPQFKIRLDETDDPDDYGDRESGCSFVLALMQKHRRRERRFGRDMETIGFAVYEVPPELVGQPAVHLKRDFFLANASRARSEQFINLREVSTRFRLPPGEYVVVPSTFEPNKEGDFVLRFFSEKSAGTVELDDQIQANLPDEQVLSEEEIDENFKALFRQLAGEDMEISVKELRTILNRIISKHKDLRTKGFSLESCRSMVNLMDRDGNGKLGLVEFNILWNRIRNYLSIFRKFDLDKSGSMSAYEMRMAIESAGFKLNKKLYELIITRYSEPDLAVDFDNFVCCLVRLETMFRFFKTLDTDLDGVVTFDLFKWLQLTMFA
Test: Inhibition of calpain I activity
Assay type: biochemical
Settings: Table III
Square brackets hold non-standard residues; d marks the D form. Peptide text beside a SMILES is read from it. * marks the point of attachment. d2Thi = N[C@H](Cc1cccs1)C(=O)O; Tos = Cc1ccc(S(=O)(=O)*)cc1; Bn = c1ccc(C*)cc1; Ms = CS(=O)(=O)*
assay readout: pIC50
Recall that pIC50 is obtained by taking minus log10 of the concentration measured in molar.

Q) For the molecule shown here, CS(=O)(=O)N[C@H](CS(=O)(=O)Cc1ccccc1)C(=O)N[C@H](C=O)Cc1ccccc1 , give the reported pIC50.
A) 7.82

Q) For the molecule shown here, Cc1ccc(S(=O)(=O)N[C@H](Cc2ccccc2)C(=O)N[C@H](C=O)Cc2ccccc2)cc1 [Compound 61] (Tos-[dF]-Phe-aldehyde) , give the reported pIC50.
A) 7.66

Q) For the molecule shown here, O=C[C@H](Cc1ccccc1)NC(=O)[C@@H](Cc1c[nH]c2ccccc12)NS(=O)(=O)c1cccs1 , give the reported pIC50.
A) 7.85

Q) For the molecule shown here, CS(=O)(=O)N1Cc2ccccc2CC1C(=O)N[C@H](C=O)Cc1ccccc1 (single isomer, unassigned) [Compound 95] , give the reported pIC50.
A) 6.56

Q) For the molecule shown here, CS(=O)(=O)N[C@H](Cc1cccs1)C(=O)N[C@H](C=O)Cc1ccccc1 [Compound 100] (Ms-[d2Thi]-Phe-aldehyde) , give the reported pIC50.
A) 7.82

Q) For the molecule shown here, Cc1noc(C)c1S(=O)(=O)N[C@H](COCc1ccccc1)C(=O)N[C@H](C=O)Cc1ccccc1 , give the reported pIC50.
A) 7.60

Q) For the molecule shown here, CS(=O)(=O)N[C@H](Cc1ccc(OCc2ccccc2)cc1)C(=O)N[C@H](C=O)Cc1ccccc1 [Compound 89] (Ms-[dY](Bn)-Phe-aldehyde) , give the reported pIC50.
A) 7.82

Q) For the molecule shown here, Cn1cnc(S(=O)(=O)N[C@H](COCc2ccccc2)C(=O)N[C@H](C=O)Cc2ccccc2)c1 , give the reported pIC50.
A) 7.12

Q) For the molecule shown here, O=C[C@H](Cc1ccccc1)NC(=O)[C@@H](Cc1ccccc1)NS(=O)(=O)c1cccc2cccnc12 , give the reported pIC50.
A) 7.48

Q) For the molecule shown here, CS(=O)(=O)N[C@H](Cc1ccccc1)C(=O)N[C@H](C=O)Cc1ccccc1 [Compound 70] (Ms-[dF]-Phe-aldehyde) , give the reported pIC50.
A) 7.80

Q) For the molecule shown here, C[C@@H](NS(=O)(=O)c1ccccc1)C(=O)N[C@H](C=O)Cc1ccccc1 , give the reported pIC50.
A) 7.03

Q) For the molecule shown here, CC(C)C[C@@H](NS(C)(=O)=O)C(=O)N[C@H](C=O)Cc1ccccc1 [Compound 86] (Ms-[dL]-Phe-aldehyde) , give the reported pIC50.
A) 7.40

Q) For the molecule shown here, CC(C)(C)OC(=O)NCCCC[C@@H](C=O)NC(=O)[C@@H](COCc1ccccc1)NS(C)(=O)=O , give the reported pIC50.
A) 8.05

Q) For the molecule shown here, CS(=O)(=O)N[C@H](COCc1ccccc1)C(=O)N[C@@H](Cc1ccccc1)C(O)S(=O)(=O)O (some centres unmarked) , give the reported pIC50.
A) 8.10

====

Target: α-chymotrypsin (Bos taurus)
Construct: purchased Sigma Chem. Co. C-3142
Test: Inhibition of α-chymotrypsin
Format: biochemical
Settings: Table III; 10 uM; read-out: Chymotrypsin % I @ 10 uM
Square brackets hold non-standard residues; d marks the D form. Peptide text beside a SMILES is read from it. * marks the point of attachment. 2Thi = N[C@@H](Cc1cccs1)C(=O)O; Tle = CC(C)(C)[C@H](N)C(=O)O; Bn = c1ccc(C*)cc1; Ms = CS(=O)(=O)*
assay readout: inhibition at 10 µM (%)
Note: unit % is implicit; provide only the numeric part.

Q) For the molecule shown here, CS(=O)(=O)N[C@H](COCc1ccccc1)C(=O)N[C@@H](C=O)Cc1ccccc1 [Compound 84] , give the reported inhibition at 10 µM.
A) 0

Q) For the molecule shown here, O=C[C@H](Cc1ccccc1)NC(=O)[C@@H](Cc1ccccc1)NS(=O)(=O)c1cccc2cccnc12 [Compound 74] , give the reported inhibition at 10 µM.
A) 13

Q) For the molecule shown here, CS(=O)(=O)N[C@H](COCc1ccccc1)C(=O)N[C@@H](Cc1ccccc1)C(=O)CCc1ccccc1 [Compound 125] , give the reported inhibition at 10 µM.
A) 0

Q) For the molecule shown here, CC(C)(C)OC(=O)NCCCC[C@@H](C=O)NC(=O)[C@@H](COCc1ccccc1)NS(C)(=O)=O [Compound 93] , give the reported inhibition at 10 µM.
A) 0

Q) For the molecule shown here, Cc1ccc(S(=O)(=O)N2C[C@@H](C#N)C[C@@H]2C(=O)N[C@H](C=O)Cc2ccccc2)cc1 [Compound 129] , give the reported inhibition at 10 µM.
A) 6

Q) For the molecule shown here, CS(=O)(=O)N[C@@H](Cc1cccs1)C(=O)N[C@H](C=O)Cc1ccccc1 [Compound 99] (Ms-[2Thi]-Phe-aldehyde) , give the reported inhibition at 10 µM.
A) 13

Q) For the molecule shown here, C[C@@H](NS(=O)(=O)c1ccccc1)C(=O)N[C@H](C=O)Cc1ccccc1 [Compound 104] , give the reported inhibition at 10 µM.
A) 6

Q) For the molecule shown here, CC(C)(C)[C@@H](C=O)NC(=O)[C@@H](COCc1ccccc1)NS(C)(=O)=O [Compound 111] (Ms-[dS](Bn)-[Tle]-aldehyde) , give the reported inhibition at 10 µM.
A) 16

Q) For the molecule shown here, C[C@H](OCc1ccccc1)[C@@H](NS(C)(=O)=O)C(=O)N[C@H](C=O)Cc1ccccc1 [Compound 43] (Ms-[dT](Bn)-Phe-aldehyde) , give the reported inhibition at 10 µM.
A) 3

Q) For the molecule shown here, Cc1ccc(S(=O)(=O)N2C[C@@H](N=[N+]=[N-])C[C@@H]2C(=O)N[C@H](C=O)Cc2ccccc2)cc1 [Compound 114] , give the reported inhibition at 10 µM.
A) 9

Q) For the molecule shown here, O=C[C@H](Cc1ccccc1)NC(=O)[C@@H](COCc1ccccc1)NS(=O)(=O)c1ccccc1 [Compound 48] , give the reported inhibition at 10 µM.
A) 0

Q) For the molecule shown here, CC(C)C[C@@H](C=O)NC(=O)[C@@H](COCc1ccccc1)NS(C)(=O)=O [Compound 88] (Ms-[dS](Bn)-Leu-aldehyde) , give the reported inhibition at 10 µM.
A) 0

Q) For the molecule shown here, O=C[C@H](Cc1ccccc1)NC(=O)[C@@H](COCc1ccccc1)NS(=O)(=O)c1ccc(F)cc1 [Compound 46] , give the reported inhibition at 10 µM.
A) 6

Q) For the molecule shown here, CS(=O)(=O)N[C@H](COCc1ccccc1)C(=O)N[C@H](C=NNC(N)=O)Cc1ccccc1 [Compound 115] , give the reported inhibition at 10 µM.
A) 0

Q) For the molecule shown here, CC(=O)N[C@H](COCc1ccccc1)C(=O)N[C@H](C=O)Cc1ccccc1 [Compound 42] , give the reported inhibition at 10 µM.
A) 14
